Provenance of the data: ChEMBL document CHEMBL1770086

# studyTarget: Peroxisome proliferator-activated receptor gamma (Mus musculus)
# experiment: Agonist activity at mouse PPARgamma expressed in CV1 cells co-expressing tk-PPRE-luciferase vector assessed as transient transactivation at 20 uM after 24 hrs by luciferase reporter gene transactivation assay relative to rosiglitazone
# Assay type: functional, cell-based
# runConditions: CV-1
Calls of active or inactive are those of the source. No cut-off for these calls is given here.
assayReadout: Activity

{"columns": ["structure", "studyTarget", "assayReadout", "observedResult"],
 "data": [
  ["CN(CCOc1ccc2cc(C(=O)O)[nH]c2c1)c1nc2ccccc2s1", "Peroxisome proliferator-activated receptor gamma (Mus musculus)", "Activity", "inactive"],
  ["CN(CCOc1ccc2cc(C(=O)O)n(C)c2c1)c1nc2ccccc2s1", "Peroxisome proliferator-activated receptor gamma (Mus musculus)", "Activity", "29.6%"],
  ["CN(CCCOc1ccc2c(c1)c(CC(=O)O)cn2Cc1ccc(F)cc1)c1nc2ccccc2o1", "Peroxisome proliferator-activated receptor gamma (Mus musculus)", "Activity", "15.8%"],
  ["CN(CCOc1ccc2cc(C(=O)O)n(Cc3ccccc3)c2c1)c1nc2ccccc2o1", "Peroxisome proliferator-activated receptor gamma (Mus musculus)", "Activity", "43.9%"],
  ["CN(CCOc1ccc2cc(C(=O)O)n(C)c2c1)c1nc2ccccc2o1", "Peroxisome proliferator-activated receptor gamma (Mus musculus)", "Activity", "inactive"],
  ["COC(=O)Cc1c[nH]c2ccc(OCCCN(C)c3nc4ccccc4o3)cc12", "Peroxisome proliferator-activated receptor gamma (Mus musculus)", "Activity", "42.1%"],
  ["COC(=O)Cc1cn(CC(=O)OC)c2ccc(OCCCN(C)c3nc4ccccc4o3)cc12", "Peroxisome proliferator-activated receptor gamma (Mus musculus)", "Activity", "37.1%"],
  ["CN(CCOc1ccc2[nH]cc(CC(=O)O)c2c1)c1nc2ccccc2o1", "Peroxisome proliferator-activated receptor gamma (Mus musculus)", "Activity", "28.1%"],
  ["CN(CCCOc1ccc2c(c1)c(CC(=O)O)cn2CC(=O)O)c1nc2ccccc2o1", "Peroxisome proliferator-activated receptor gamma (Mus musculus)", "Activity", "inactive"],
  ["CCn1cc(CC(=O)O)c2cc(OCCN(C)c3nc4ccccc4o3)ccc21", "Peroxisome proliferator-activated receptor gamma (Mus musculus)", "Activity", "66.7%"]
]}

[Q] # get_value(readout='Activity', item= CN(CCOc1ccc2cc(C(=O)O)[nH]c2c1)c1nc2ccccc2o1 )
[A] inactive

[Q] Another compound to look at: COC(=O)Cc1cn(C(=O)c2ccc(Cl)cc2)c2ccc(OCCCN(C)c3nc4ccccc4o3)cc12
[A] 28.9%
